Experiment: physchem
Details: water
ASSAY_ENDPOINT: solubility

> print(dat)
                                   compound  assay.endpoint  experimental.result
1  COc1ccc(C(=O)N2CCCc3cc(C4=NNC(=O)SC4C)ccc32)cc1OC (stereo not shown)      solubility              2 µg/mL
